Species on record: Mus musculus
assayInfo: Antagonistic activity against tetrabenazine-induced ptosis in mice.
Format: functional
measurementType: ED50 (µmol/kg)
Provide only the numeric value, understood in µmol/kg.

Example entries and their recorded answers appear below.
- compound: "CNC1CC(c2ccc(F)c(F)c2)c2ccccc21.Cl (stereo in doubt; 68)"
  ED50, µmol/kg: 23
- compound: "CNC1CC(c2ccc(F)c(Cl)c2)c2ccccc21.Cl (stereo in doubt; 43)"
  ED50, µmol/kg: 12

Find the measured ED50 of CNC1CC(c2ccc(Cl)cc2Cl)c2ccccc21.Cl (stereo in doubt; 48) and report it.
19

Find the measured ED50 of CNC1CC(c2ccc(F)c(F)c2)c2ccccc21.Cl (stereo in doubt; 41) and report it.
58

Data origin: ChEMBL document CHEMBL1122866
